Data provenance is patent US20040248887A1.

biological target: UniProtKB P25774; assay: Cathepsin S inhibition, fluorogenic peptide substrate kinetic assay; type: biochemical; details: Table II; Cathepsin S inhibition constant, pH5.5; read-out: Ki Cat. S
pKi: −log10 of the molar value.

| molecule | pKi |
| --- | --- |
| O=C(N[C@@H](CC1CCCCC1)C(=O)NCCN1CCc2cc(F)ccc21)C1CC(=O)N(Cc2ccco2)C1 (some centres unmarked) [Compound 74] | > 6.00 |
| C[C@@H](CNc1cccc(C(N)=O)c1)NC(=O)[C@H](CC1CCCCC1)NC(=O)c1ccc(-c2cccc(F)c2)o1 [Compound 98] | > 7.00 |
| O=C(N[C@@H](CC1CCCCC1)C(=O)NCCN1CCc2cc(F)ccc21)C1CCN(C(=O)c2ccccc2)CC1 [Compound 5] | > 6.00 |
| CNS(=O)(=O)c1ccc(NC[C@H](C)NC(=O)[C@H](CC2CCCCC2)NC(=O)c2ccc(-c3cccc(F)c3)o2)cc1 [Compound 118] | > 7.00 |
| COc1cccc(C(=O)N[C@@H](CCC2CCCCC2)C(=O)NCCN2CCc3cc(C#N)ccc32)c1 [Compound 12] | > 5.00 |
| O=C(N[C@@H](CC1CCCCC1)C(=O)NCCN1CCc2cc(F)ccc21)c1ccc(-c2cccc(C(F)(F)F)c2)o1 [Compound 2] | > 7.00 |
| Cc1cc(NC[C@H](C)NC(=O)[C@H](CC2CCCCC2)NC(=O)c2ccc(-c3cccc(F)c3)o2)no1 [Compound 133] | > 6.00 |
| COc1cccc(C(=O)N[C@@H](CCC2CCCCC2)C(=O)NCCN2CCc3cc(OC)ccc32)c1 [Compound 16] | > 5.00 |
| COc1cccc(C(=O)N[C@@H](CCC2CCCCC2)C(=O)NCCN2CCc3c(OC)cccc32)c1 [Compound 15] | > 5.00 |
| C[C@@H](CNc1cccc(C#N)c1)NC(=O)[C@H](CC1CCCCC1)NC(=O)c1ccc(-c2cccc(F)c2)o1 [Compound 100] | > 7.00 |
| COc1ccc(CC(=O)N[C@@H](CC2CCCCC2)C(=O)NCCN2CCc3cc(F)ccc32)cc1 [Compound 6] | > 6.00 |
| Cn1cnc(C(=O)N[C@@H](CC2CCCCC2)C(=O)NCCN2CCc3cc(F)ccc32)c1 [Compound 63] | > 6.00 |
| C[C@@H](CNc1ccccc1C(N)=O)NC(=O)[C@H](CC1CCCCC1)NC(=O)c1ccc(-c2cccc(F)c2)o1 [Compound 121] | > 6.00 |
| C[C@@H](CNc1ccc(S(C)(=O)=O)cc1)NC(=O)[C@H](CC1CCCCC1)NC(=O)c1ccc(-c2cccc(F)c2)o1 [Compound 89] | > 7.00 |
| C[C@@H](CNc1ccc(OC(F)(F)F)cc1)NC(=O)[C@H](CC1CCCCC1)NC(=O)c1nc(-c2cccc(F)c2)no1 [Compound 108] | > 7.00 |
| COc1ccc(NCC(C)NC(=O)C(CCC2CCCCC2)NC(=O)c2cc3ccccc3[nH]2)cc1 (mixture of isomers) [Compound 24] | > 6.00 |
| C[C@@H](CNc1cccc(S(C)(=O)=O)c1)NC(=O)[C@H](CC1CCCCC1)NC(=O)c1ccc(-c2ccc(F)cc2)o1 [Compound 106] | > 7.00 |

###

molecular target: Cathepsin S (Homo sapiens); test: Cathepsin S inhibition, fluorogenic peptide substrate kinetic assay; assay type: biochemical; settings: Table III; Cathepsin S inhibition constant, pH5.5; read-out: Ki Cat. S
Sequence (P25774 115-331, species assumed): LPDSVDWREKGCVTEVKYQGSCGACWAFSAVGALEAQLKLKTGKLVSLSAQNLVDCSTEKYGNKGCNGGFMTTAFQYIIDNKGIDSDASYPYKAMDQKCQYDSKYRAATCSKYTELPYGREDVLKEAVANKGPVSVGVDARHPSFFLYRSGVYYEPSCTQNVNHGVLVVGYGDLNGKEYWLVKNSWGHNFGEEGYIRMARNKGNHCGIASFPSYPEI
This listing pairs compounds with measured Ki.
observedProperty: Ki

| compound | result |
| --- | --- |
| CC(C(=O)N[C@@H](CC1CCCCC1)C(=O)NCCN1CCc2cc(F)ccc21)c1ccc(O)cc1 (stereo partly drawn) | < 100 nM |
| Cn1nc(C(F)(F)F)cc1-c1ccc(S(=O)(=O)N[C@@H](CC2CCCCC2)C(=O)NCCN2CCc3cc(F)ccc32)s1 | < 100 nM |
| C[C@@H](CNc1ccccc1C(N)=O)NC(=O)[C@H](CC1CCCCC1)NC(=O)c1ccc(-c2cccc(F)c2)o1 | < 1000 nM |
| Cc1nn(C)c(Cl)c1S(=O)(=O)N[C@@H](CC1CCCCC1)C(=O)NCCN1CCc2cc(F)ccc21 | < 1000 nM |
| C[C@@H](CNc1cc(F)ccc1F)NC(=O)[C@H](CC1CCCCC1)NC(=O)c1ccc(-c2cccc(F)c2)o1 | < 100 nM |
| C[C@@H](CNc1ccc(OC(F)(F)F)cc1)NC(=O)[C@H](CC1CCCC1)NC(=O)O[C@@H]1CCOC1 | < 100 nM |
| O=C(N[C@H](C(=O)N[C@@H](COCc1ccccc1)CN1CCc2cc(F)ccc21)c1ccc(Cl)cc1Cl)c1ccc(F)c(F)c1 | < 100 nM |
| Cc1noc(C)c1NC(=O)N[C@@H](CC1CCCCC1)C(=O)NCCN1CCc2cc(F)ccc21 | < 1000 nM |
| C[C@@H](CNc1ccc(OC(F)(F)F)cc1)NC(=O)[C@H](CC1CCCCC1)NC(=O)c1cnn(-c2cccc(F)c2)c1 | < 100 nM |
| O=C(NC(CCC1CCCCC1)C(=O)NC(COCc1ccccc1)CN1CCc2cc(F)ccc21)c1cc2ccccc2[nH]1 (mixture of isomers) | < 100 nM |
| Cc1cccc(S(=O)(=O)N[C@@H](CC2CCCCC2)C(=O)N[C@@H](C)CN2CCc3cc(F)ccc32)c1 | < 100 nM |
| C[C@@H](CNc1cccc(C(N)=O)c1)NC(=O)[C@H](CC(C)(C)C)NC(=O)c1ccc(-c2cccc(F)c2)o1 | < 100 nM |
| CS(=O)(=O)Nc1ccc(C(=O)N[C@@H](CC2CCCCC2)C(=O)NCCN2CCc3cc(F)ccc32)cc1 | < 100 nM |
| COc1ccc(N2CCC[C@H](NC(=O)[C@H](CC(C)C)NC(=O)c3cccc(C)c3)C2)cc1 (single isomer, unassigned) | < 10000 nM |
| COC(=O)c1cccc(NC[C@H](C)NC(=O)[C@H](CC2CCCCC2)NC(=O)c2ccc(-c3cccc(F)c3)o2)c1 | < 1000 nM |
